# System: Human gammaherpesvirus 4
# experiment notes: TPA-induced EBV early antigen activation in Raji cells at 32 nmol relative to control
Entries and their EBV-EA activation
quantity: EBV-EA activation (%)

COc1cc(/C=C/Cc2ccc(OC)c(OCC=C(C)C)c2O)ccc1OCC=C(C)C: 0
COc1cc(/C=C/Cc2ccc(O)c(O)c2OC)ccc1O: 7.5
COc1ccc(C/C=C/c2ccccc2)c(OCC=C(C)C)c1OCC=C(C)C: 0
COc1cc(/C=C/Cc2ccc(OC)c(O)c2O)ccc1O: 8.7
COc1ccc(C/C=C/c2ccccc2)c(OC)c1O: 14.1
COc1cc(/C=C/Cc2ccc(OC)c(OCC=C(C)C)c2O)ccc1O: 0
COc1ccc(C/C=C/c2ccccc2)c(O)c1O: 10.8
COc1ccc(C/C=C/c2ccccc2)c(OCC=C(C)C)c1: 0
COc1c(C/C=C/c2ccccc2)ccc(OCC=C(C)C)c1OCC=C(C)C: 0
COc1c(O)ccc(C/C=C/c2ccccc2)c1OC: 12.5
COc1cc(O)ccc1C/C=C/c1ccccc1: 18.1
COc1cccc(OCC=C(C)C)c1C/C=C/c1ccccc1: 0
COc1cccc(O)c1C/C=C/c1ccccc1: 18.3
COc1c(C/C=C/c2ccccc2)ccc(O)c1C/C=C/c1ccccc1: 12.8
COc1ccc(C/C=C/c2ccccc2)c(OCC=C(C)C)c1O: 0
COc1ccc(C/C=C/c2ccccc2)c(O)c1: 20.7
COc1c(C/C=C/c2ccccc2)cc(C/C=C/c2ccccc2)c(OC)c1OC: 12.6
COc1c(C/C=C/c2ccccc2)ccc(O)c1O [HYDROXYOBUSTYRENE]: 10.2
COc1c(C/C=C/c2ccccc2)ccc(OCC=C(C)C)c1OC: 0
COc1cc(/C=C/Cc2ccc(OC)c(OCC=C(C)C)c2OCC=C(C)C)ccc1OCC=C(C)C: 0
COc1cc(/C=C/Cc2ccc(O)c(O)c2OC)ccc1OC(C)=O: 9.4
COc1cc(/C=C/Cc2ccc(OC)c(O)c2OCC=C(C)C)ccc1O: 0
COc1cc(OCC=C(C)C)ccc1C/C=C/c1ccccc1: 0
